test system: HTT mRNA; experiment: Gene panel canonical junction qPCR assay, decrease in CJ mRNA, Table 3; assay type: cell-based; details: decrease in CJ mRNA levels, canonical junction qPCR, gene panel
pIC50: −log10 of the molar value.
assay_metric: pIC50

>  <compound>
COc1nc2c(N3CCC(NC4CC4)CC3)ccc(C(=O)Nc3cc(F)c4nc(C)cn4c3)c2o1 [Compound 666]

>  <pIC50>
5.00 to 6.00

$$$$
>  <compound>
CCNC1CCN(c2ccc(C(=O)Nc3cn4cc(C)nc(CC(=O)N(C)C)c4n3)c3nn(C)cc23)CC1 [Compound 856]

>  <pIC50>
5.00 to 6.00

$$$$

I would be grateful if you could share the reported pIC50 for CCNC1CCN(c2ccc(C(=O)Nc3cn4cc(C)nc(C)c4n3)n3nc(C)cc23)CC1 [Compound 615] .
5.00 to 6.00

Request: Cc1cn2cc(NC(=O)c3ccc(N4CCC(NC5CC5)CC4)c4cn(C)nc34)nc2c(Cn2ccc(=O)[nH]c2=O)n1 [Compound 733, 2,2,2-trifluoroacetate]
< 5.00

Request: COc1nc2c(C(=O)Nc3cc(F)c4nn(C)cc4c3)ccc(N3CCN[C@H](C)C3)c2s1 [Compound 765]
6.00 to 7.00

Request: Cc1cn2cc(NC(=O)c3ccc(N4CCC(NC5CC5)CC4)c4cn(C)nc34)nc2c(Cn2cccn2)n1 [Compound 773]
5.00 to 6.00

Request: COc1cc2c(N3C[C@H](C)N[C@@H](C)C3)ccc(C(=O)Nc3cc(F)c4nn(C)cc4c3)n2n1 [Compound 697]
6.00 to 7.00

Request: Cn1cc2cc(NC(=O)c3ccc(N4CCC(NC5CC5)CC4)c4cn(C)nc34)cc(CNC3(C)COC3)c2n1 [Compound 834]
< 5.00

Request: CCNC1CCN(c2ccc(C(=O)Nc3cn4cc(C)nc(CC(N)=O)c4n3)c3nn(C)cc23)CC1 [Compound 857]
< 5.00

Request: CCNC1CCN(c2ccc(C(=O)Nc3cc(CCc4nnc[nH]4)c4nn(C)cc4c3)c3nn(C)cc23)CC1 [Compound 878]
< 5.00

###

Recorded IC50 by entry
tested on: HTT mRNA; assay: Splicing RT-qPCR assay (THP), Table 2A; type: cell-based; details: Table 2A (THP), CJ mRNA decrease, read-out: HTT CJ (decrease in canonical junction mRNA, IC50)

Before answering, review these 4 worked examples.
>  <molecule>
Cc1cn2cc(NC(=O)c3c(F)cc(N4CCC(NC5CC5)CC4)c4cn(C)nc34)cc(Oc3cn[nH]c3)c2n1 [Compound 410, 2,2,2-trifluoroacetate]

>  <test_value>
> 10 µM

$$$$
>  <molecule>
CCNC1CCN(c2ccc(C(=O)Nc3nc4c(C)nc(C)cc4[nH]3)c3nn(C)cc23)CC1

>  <test_value>
1 to 10 µM

$$$$
>  <molecule>
Cc1cn2cc(NC(=O)c3ccc(N4CC5(CNC5)C4)c4cn(C)nc34)nc2c(C)n1

>  <test_value>
> 10 µM

$$$$
>  <molecule>
CNC1CCN(c2ccc(NC(=O)c3cc4cn(C)nc4cc3OC)c3nn(C)cc23)CC1

>  <test_value>
> 10 µM

$$$$

I would be grateful if you could share the reported IC50 for CCNC1CCN(c2ccc(C(=O)Nc3cc4c(C)nc(C)cn4c3)c3nn(C)cc23)CC1 .
> 10 µM

Request: CCNC1CCN(c2ccc(C(=O)Nc3cc(F)c4nc(C)c(C)n4c3)c3nn(C)cc23)CC1
> 10 µM

Request: CCNC1CCN(c2ccc(C(=O)Nc3cc(F)c4nc(CO)cn4c3)c3nn(C)cc23)CC1
1 to 10 µM
